protein stability index by entry:
B1: TOR1AIP2 (parent)
chain: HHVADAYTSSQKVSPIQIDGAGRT

- Variants of: B1
- assayOverview: protein stability index of a GFP-peptide fusion (GPS, HEK-293T) (PSI 1-6); higher = more stable;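 note: lentivirally expressed fusions sorted by FACS into six bins by GFP to DsRed ratio, PSI derived from sequencing read proportions per bin multiplied by bin number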
- conditionContext: c terminus: a fixed tail appended
assayMetric: protein stability index

# mutationKey, observedMeasurement
records = [
    ("A6Q", 4.32),
    ("H1D", 4.91),
    ("G20S", 3.23),
    ("A6V", 3.48),
    ("I18P", 4.15),
    ("T8S", 3.69),
    ("Y7H", 4.84),
    ("A6F", 2.69),
    ("D5A", 2.63),
    ("A6N", 4.26),
    ("G22C", 3.6),
    ("P15A", 3.66),
    ("G20V", 3.33),
    ("A6H", 3.85),
    ("T8I", 2.82),
    ("D5T", 3.68),
    ("H2W", 2.96),
    ("H1Y", 3.09),
    ("I18Y", 2.97),
    ("I16L", 3.6),
    ("A6W", 2.19),
    ("T24A", 3.36),
    ("Y7E", 4.97),
    ("V13F", 3.21),
    ("Q17W", 2.31),
    ("I16G", 3.78),
    ("P15N", 3.47),
    ("S10I", 2.72),
    ("P15T", 3.28),
    ("S14L", 3.42),
    ("A21D", 4.16),
    ("Q17Y", 2.66),
    ("Q17D", 3.67),
    ("D19P", 3.06),
    ("S9H", 3.77),
    ("T24R", 3.68),
    ("A6T", 4.02),
    ("I16V", 4.05),
    ("H1C", 3.67),
    ("A6D", 4.19),
    ("G20T", 3.48),
    ("R23C", 3.68),
    ("I16D", 4.46),
    ("S10W", 2.37),
]
